Kd for assorted compounds
study.target: PTmAb0005
test: BIAcore affinity to PTmAb0005
Assay type: binding
recorded.conditions: read-out: PTmAb BIAcore KD^Rel (μM) PTmAb0005
Excerpt: This involved a DNA sub-cloning transfer from the major coat protein (gVIIIp) filamentous phage display vector to a lower copy number minor phage coat protein (gIIIp) display vector with a random PCR step. […] Included in the tables are ranking orders and also BIAcore affinities where available. Thus indicating the importance of correct presentation of the peptides of the present invention to adopt a shape which closely resembles the native target in the context of the whole IgE molecule. [drawing]
Positions of bridges follow the written chain, without caps; N, C: chain ends. Residues, ends and D or L forms follow the SMILES beside them.
Report the value in µM with no unit label.

// worked examples, Kd included
# compound, study.target, Kd [µM]
data = [
    ("CC[C@H](C)[C@@H]1NC(=O)[C@H](Cc2ccccc2)NC(=O)[C@@H](N)CSSC[C@@H](C(=O)N2CCC[C@H]2C(=O)N[C@@H](CCCNC(=N)N)C(=O)N[C@@H](CCC(=O)O)C(=O)O)NC(=O)[C@H](CC(C)C)NC(=O)[C@H](CCC(=O)O)NC(=O)[C@H](CC(C)C)NC(=O)[C@H](CC(=O)O)NC(=O)[C@H](C)NC(=O)[C@H](CCSC)NC(=O)[C@H](CCC(N)=O)NC(=O)[C@H](CCCCN)NC(=O)[C@H](CC(N)=O)NC1=O [IgEC67-8] (H-CFINKQMADLELCPRE-OH; disulfide 1-13)", "PTmAb0005", 0.0094),
    ("CC(C)[C@H](NC(=O)[C@H](CC(=O)O)NC(=O)[C@H](CO)NC(=O)[C@@H]1CSSC[C@H](NC(=O)[C@@H](N)CO)C(=O)N[C@@H](C)C(=O)N[C@@H](Cc2ccc(O)cc2)C(=O)N[C@@H]([C@@H](C)O)C(=O)N[C@@H](C)C(=O)N[C@@H](CCC(N)=O)C(=O)N[C@@H](CCCNC(=N)N)C(=O)N[C@@H](CCC(N)=O)C(=O)N1)C(=O)N1CCC[C@H]1C(=O)N[C@@H](CC(N)=O)C(=O)N1CCC[C@H]1C(=O)NCC(=O)O [IgEC69] (H-SCAYTAQRQCSDVPNPG-OH; disulfide 2-10)", "PTmAb0005", 6.6),
    ("CSCC[C@H](NC(=O)[C@H](CCC(N)=O)NC(=O)[C@H](CC(C)C)NC(=O)CNC(=O)[C@H](CCC(=O)O)NC(=O)[C@H](CC(C)C)NC(=O)[C@@H](NC(=O)[C@H](C)NC(=O)[C@H](CC(N)=O)NC(=O)[C@H](CS)NC(=O)[C@@H](N)CCC(N)=O)C(C)C)C(=O)N[C@H](C(=O)N[C@@H](CC(=O)O)C(=O)N[C@@H](Cc1c[nH]cn1)C(=O)N[C@@H](CS)C(=O)N[C@@H](Cc1c[nH]c2ccccc12)C(=O)N[C@@H](CC(N)=O)C(=O)O)C(C)C [IgEC26] (H-QCNAVLEGLQMVDHCWN-OH)", "PTmAb0005", 3),
]

**Query** Fill blank: measured Kd of the compound CSCC[C@H](NC(=O)[C@@H](NC(=O)[C@H](Cc1ccccc1)NC(=O)[C@H](CCC(N)=O)NC(=O)[C@H](CCCNC(=N)N)NC(=O)[C@H](CS)NC(=O)[C@@H](N)CCC(N)=O)C(C)C)C(=O)N[C@@H](CC(N)=O)C(=O)N[C@@H](CCC(N)=O)C(=O)N[C@@H](CO)C(=O)N[C@@H](CCC(=O)O)C(=O)N[C@@H](CCCCN)C(=O)N[C@@H](CCC(=O)O)C(=O)N[C@@H](Cc1ccccc1)C(=O)NCC(=O)N[C@@H](CCC(N)=O)C(=O)N[C@@H](CS)C(=O)O [IgEC56] (H-QCRQFVMNQSEKEFGQC-OH) is ____.
**Result** 60
